tested on: NCI-H522 lung; assay: NCI tumour cell line growth inhibition, 48 h
Use 30 µM as the dividing line for TGI, with the line itself on the TRUE side and lower values as FALSE.

INPUT: // inclusive: TGI at least 30 µM? input: COc1ccc(/C(Cl)=C(\C=O)c2cc(OC)c(OC)c(OC)c2)cc1OC
OUTPUT: TRUE

INPUT: Same for COc1cc2c(cc1OCCCCCN1CCN(c3cc(=O)oc4c(C)c(OC)ccc34)CC1)N=C[C@@H]1CCCN1C2=O
OUTPUT: FALSE

INPUT: Same lookup for COc1cc(/C=C/C(=O)CC(=O)/C=C/c2ccc(OC(=O)CCNC34CC5CC(CC(C5)C3)C4)c(OC)c2)ccc1OC(=O)CCNC12CC3CC(CC(C3)C1)C2 , please.
OUTPUT: FALSE

INPUT: Could you do the same for COc1ccc(-c2cc(=O)c3c(O)c(OC)c(O)cc3o2)cc1O , please?
OUTPUT: FALSE

INPUT: # iterate: Cc1nn(-c2ccccc2)c2nc3c(c(C)nn3-c3ccccc3)c(-c3ccccc3Br)c12
OUTPUT: TRUE

INPUT: Now this one: O=S(=O)([N-]c1nc2ccccc2nc1-[n+]1ccccc1)c1ccccc1
OUTPUT: TRUE

INPUT: // query: C=CCN1C(=O)N/C(=C\c2ccc(Cl)cc2)C1=O
OUTPUT: TRUE

INPUT: What about this compound? Cc1c2c(cc3c1[nH]c1ccccc13)C(c1ccc(F)cc1)=NCC2
OUTPUT: FALSE

INPUT: Would you mind doing CN1CCC23c4ccccc4NC1C21CCN(C)C3Nc2ccccc21 as well?
OUTPUT: TRUE

INPUT: Another: C=C1C(C2(C)C=CC(=O)OC3(C)COC(=O)CC32)C(OC=O)C(OC(=O)C(O)C(C)CC)C2(C)C(c3ccoc3)CC(OC(C)=O)C12O (stereo not given)
OUTPUT: TRUE

INPUT: Can you check Nc1ccccc1C(=O)NNC(=O)c1ccccc1N next?
OUTPUT: TRUE

INPUT: Thanks! And C=CCOCCCC(=O)C(=[N+]=[N-])C(=O)OC ?
OUTPUT: TRUE

INPUT: Next compound: O=C(CSc1nc2sc3c(c2c(=O)n1-c1ccccc1)CCCCC3)N/N=C/c1ccc(F)cc1
OUTPUT: TRUE

INPUT: Also, CCC[C@H](Nc1nc(-c2ccc(NC(=O)NCC)c(OC)c2)ncc1C)c1cccnc1 please.
OUTPUT: FALSE

INPUT: How about COC(=O)c1cccc(C)c1C1CN=NC12Cc1c(ccc(C)c1C)C2=O (stereo not given) ?
OUTPUT: TRUE

INPUT: Next record, please: Cc1cc(S(=O)(=O)/N=C(\N)n2nc(C)c(C)c2C)c(SCc2ccccc2)cc1Cl
OUTPUT: TRUE

INPUT: Do the same for CCCN1C(=O)/C(=C/c2ccc(O)cc2)SC1=Nc1ccccc1 please
OUTPUT: TRUE

INPUT: Repeat with O=C(CSc1nnc(-c2ccc(N=Cc3ccc(Cl)cc3)cc2)o1)Nc1ccccc1
OUTPUT: TRUE

INPUT: Ok, now O=C1CC(n2cccc2)c2cc(Br)sc21 (stereo not given)
OUTPUT: TRUE

INPUT: Entry to check: CCCCC1(OC(=O)CCC(=O)O)CCC2(CCC(C)C(C/C=C(C)/C=C/C(O)C(C)/C=C/C(=O)O)O2)OC1CC/C(C)=C/C(=O)O (stereo not given)
OUTPUT: FALSE

----------
test system: T-47D breast; experiment: NCI tumour cell line growth inhibition, 48 h
Value kind: GI50

INPUT: May I ask what GI50 has been recorded for COc1cc(N)ccc1Nc1c2ccccc2nc2ccccc12 ?
OUTPUT: 15.5 µM

INPUT: Now the same for CCOC(=O)c1ccc(C(O)CC(=O)OC(C)(C)C)[nH]1 (configuration not stated)
OUTPUT: 38.4 µM

INPUT: Next entry: C[C@@H](Oc1cc(-c2cnn(C3CC4(CCNCC4)C3)c2)cnc1N)c1c(F)ccc(Cl)c1Cl
OUTPUT: 1.58 µM

INPUT: Follow-up entry: O=S(=O)(NCCNc1cc(-c2cn(-c3ccccc3)nc2-c2cccc(O)c2)ccn1)c1ccc(F)cc1
OUTPUT: 2.01 µM

INPUT: Also COc1cc(/C=C2\C[C@H]3[C@@H]4CC=C5C[C@@H](OC(C)=O)CC[C@]5(C)[C@H]4CC[C@]3(C)[C@H]2OC(C)=O)ccc1OCCCn1ccnc1 ?
OUTPUT: 16 µM

INPUT: Consider next the molecule COc1cc(-c2ccc(-[n+]3nc(-c4ccc([N+](=O)[O-])cc4)nn3-c3ccc([N+](=O)[O-])cc3)c(OC)c2)ccc1-[n+]1nc(-c2ccc([N+](=O)[O-])cc2)nn1-c1ccc([N+](=O)[O-])cc1 in the same way.
OUTPUT: 0.3 µM

INPUT: Same again, this time with Cc1c(N(C(=O)c2cc(-c3cc(Cl)ccc3C(=O)N3Cc4ccccc4C[C@H]3CN3CCOCC3)n(C)c2C)c2ccc(O)cc2)cc(C#N)n1C
OUTPUT: 7.09 µM

----------
tested on: IGROV1 ovarian; assay: NCI tumour cell line growth inhibition, 48 h; in the data active = GI50 below about 0.43 µM; inactive = the rest
The reply should name one outcome from label 1 (active), label 0 (inactive)

INPUT: Give the logged outcome of this assay for the following molecule: CCC[CH2][Sn]([CH2]CCC)([O]C(=O)c1cccc(F)c1F)[O][Sn]([CH2]CCC)([CH2]CCC)[O]C(=O)c1cccc(F)c1F
OUTPUT: label 0

INPUT: Now this one: CCCN1C(=O)/C(=C/c2ccc(O)cc2)SC1=Nc1ccccc1
OUTPUT: label 0

INPUT: And the next one, O=C(/C=C/c1ccc2c(c1)OCO2)c1ccccc1 ?
OUTPUT: label 0

INPUT: Now the same for CC1(C)OC(=O)C=C(O)O1.CC1(C)OC(=O)C=C(O)O1.CCO.Oc1ccc2c(c1)CCC2.[Ti]
OUTPUT: label 0

INPUT: Another molecule to check: CO[C@H]1C[C@@H]2CC[C@@H](C)[C@@](O)(O2)C(=O)C(=O)N2CCCC[C@H]2C(=O)O[C@H]([C@H](C)C[C@@H]2CC[C@@H](OC(=O)C(C)(CO)CO)[C@H](OC)C2)CC(=O)[C@H](C)/C=C(\C)[C@@H](O)[C@@H](OC)C(=O)[C@H](C)C[C@H](C)/C=C/C=C/C=C/1C
OUTPUT: label 1

INPUT: Try the molecule CNC(=O)c1ccc(Nc2nc(OC3CCCC3)c3c(-c4ccc5nc(C)oc5c4)c[nH]c3n2)c(OC)c1
OUTPUT: label 0

INPUT: Same for COc1cc(N)ccc1Nc1c2ccccc2nc2ccccc12
OUTPUT: label 0

INPUT: Moving on to Cc1cc2c(cc1C)[n+](=O)c(C(=O)c1cccs1)c(C(F)(F)F)n2[O-]
OUTPUT: label 0

INPUT: Also need C=C1C(=O)O[C@H]2[C@H]1CC/C(COC(=O)NCCc1c[nH]c3ccccc13)=C\CC[C@@]1(C)O[C@@H]21 , thanks.
OUTPUT: label 0

INPUT: // query: Cc1c(N(C(=O)c2cc(-c3cc(Cl)ccc3C(=O)N3Cc4ccccc4C[C@H]3CN3CCOCC3)n(C)c2C)c2ccc(O)cc2)cc(C#N)n1C
OUTPUT: label 0

INPUT: Also C=C1C(=O)O[C@H]2[C@H]1CC/C(COC(=O)N[C@@H](Cc1c[nH]c3ccccc13)C(=O)OC)=C\CC[C@@]1(C)O[C@@H]21 ?
OUTPUT: label 0

INPUT: Same question for N#Cc1c(N)nc(N2CCOCC2)c(C#N)c1-c1cccc(O)c1 please.
OUTPUT: label 0

INPUT: What do you have for N#C/C(=C\c1ccc(Br)cc1)n1nnc2cc(F)c(F)cc21 ?
OUTPUT: label 0

----------
system: OVCAR-3 ovarian; assay: NCI tumour cell line growth inhibition, 48 h
Exercise: for every item that follows, state its recorded log10 of TGI.
Quick note: numbers are log10 of TGI, with µM as the unit.

INPUT: What does the record list as log10 of TGI for CCC/C(Cl)=N\OC(=O)Nc1ccc(Br)cc1 ?
OUTPUT: 1.21

INPUT: Moving on to the next compound: CCC12CC[C@H](C#N)N3CCc4c(n(c5ccccc45)C(=O)C1)C32 (some centres not stated)
OUTPUT: 1.46

INPUT: Continue with COc1cc(-c2ccc(-[n+]3nc(-c4ccc([N+](=O)[O-])cc4)nn3-c3ccc([N+](=O)[O-])cc3)c(OC)c2)ccc1-[n+]1nc(-c2ccc([N+](=O)[O-])cc2)nn1-c1ccc([N+](=O)[O-])cc1
OUTPUT: 1.58

INPUT: Let us now turn to CCCCCCCCO/N=C\c1c2c(O)c3c(O)c(C)c4c(c3c1O)C(=O)C(C)(O/C=C\C(OC)C(C)C(OC(C)=O)C(C)C(O)C(C)C(O)C(C)/C=C\C=C(\C)C(=O)N2)O4 (configuration not stated)
OUTPUT: 0.34

INPUT: How about C/C(=C\c1csc(C)n1)[C@@H]1C[C@@H]2O[C@]2(C)CCC[C@H](C)[C@H](O)[C@@H](C)C(=O)C(C)(C)[C@@H](O)CC(=O)O1 (tested in a mixture with another compound) ?
OUTPUT: -1.08

INPUT: Consider next the compound N#CCc1[nH]nc2nc(SCc3ccccc3)nc(N3CCCCC3)c12 in the same way.
OUTPUT: 1.57

INPUT: Okay, and N#C/C(=C\c1ccc(Br)cc1)n1nnc2cc(F)c(F)cc21 ?
OUTPUT: 0.58

INPUT: COc1ccc2c(c1)C(=O)c1c-2c(N2CCN(C(=O)CN(C)C)CC2)nc2ccccc12 ?
OUTPUT: 1.77

INPUT: What about CC1=C/C(=N\N(C)C)C(C(O)(C(F)(F)F)C(F)(F)F)C(C)(C)C1 (configuration not stated) ?
OUTPUT: 1.94

INPUT: Continue with N#C/C(=C\c1ccc(Cl)cc1)n1nnc2cc(F)c(F)cc21
OUTPUT: 0.51

INPUT: What do you have for O=c1[nH]cnc2c1nnn2[C@@H]1O[C@H](CO)[C@@H](O)[C@H]1O ?
OUTPUT: 1.53

INPUT: What do we get for COc1cc2c(cc1OCCCCCN1CCN(c3cc(=O)oc4c(C)c(OC)ccc34)CC1)N=C[C@@H]1CCCN1C2=O ?
OUTPUT: -1.49

INPUT: Request: CN(C)c1cccc(-c2cc(=O)c3cc4c(cc3[nH]2)OCO4)c1
OUTPUT: -1.24

INPUT: Now try COc1cc(/C=C/C(=O)CC(=O)/C=C/c2ccc(OC(=O)CCNC34CC5CC(CC(C5)C3)C4)c(OC)c2)ccc1OC(=O)CCNC12CC3CC(CC(C3)C1)C2 .
OUTPUT: 1.34

INPUT: Try this compound next: CN(C)CCNc1c([N+](=O)[O-])cc2c3c(cccc13)C(=O)N(CCN(C)C)C2=O
OUTPUT: 0.74

Cited source: PubChem BioAssay (NCI)
